B1: Azoarcus group I ribozyme (parent)
chain: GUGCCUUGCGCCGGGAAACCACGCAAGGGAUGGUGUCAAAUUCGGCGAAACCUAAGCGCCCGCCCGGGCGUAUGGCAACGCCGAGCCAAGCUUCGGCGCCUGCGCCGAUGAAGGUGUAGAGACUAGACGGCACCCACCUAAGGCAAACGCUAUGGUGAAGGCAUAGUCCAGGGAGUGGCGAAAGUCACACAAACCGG

Variants of: B1
Experiment: reverse-splicing fitness (ratio to wild type); higher = more active; in vitro selection; Mg2+ level not given
For each entry below, report its reverse-splicing fitness value.
One number for each entry.

Answered cases to consult:
                        mutation_descriptor         measured_quantity  reported_value
0  C82G A111G A120U A145C C150U C169G U176G  reverse-splicing fitness         0.00185
1  C82A A111C A120U A145C C150U C169A U176G  reverse-splicing fitness         0.00233
2                          C82G A145C C150G  reverse-splicing fitness          0.0512
3              C82A A111U A120C A145G U176G  reverse-splicing fitness         0.00731

Provide each entry's reverse-splicing fitness from the list below.
1. C82A A111C A120C C150U C169U U176G
2. C82G A120C C150A U176C
3. C82G A120C C150A C169G U176A
4. C82A C169U U176G
5. C82G A111G A120U A145G C150U C169G U176C
6. A111U A120C A145U C150U C169A U176G

[0.0075, 0.0287, 0.0187, 0.00459, 0.00595, 0.0056]

Hey, quick one: what's reverse-splicing fitness for each of these?
1. C82G A111U A120G A145U C150U C169U U176C
2. C82U A111C A120G C150G C169A U176A
3. C82A A111C A145C C169G U176C

0.0167
0.0104
0.0216

Give reverse-splicing fitness for each listed item.
1. C82A A120G C150G U176A
2. C82A A145G C169U U176C
3. C82G A120C A145G U176C
4. C82A A111U A120U A145G C169A U176G
5. C82G A111C A120G C150A C169A U176G

[0.00568, 0.0143, 0.103, 0.00239, 0.00716]

Go through the items and report each one's reverse-splicing fitness.
1. A111U A120G A145C C150G U176A
2. C82U A111U A120U C150A C169G
3. C82A A111G A120G A145U C150U C169G U176A
4. A111C A120G A145G C150U
5. A111U A120U A145G C169U U176G

1: 0.00783; 2: 0.0044; 3: 0.014; 4: 0.139; 5: 0.00258

Provide the reported reverse-splicing fitness of each entry below, same order.
1. C82A A120G A145G C150G C169A U176G
2. C82U A111C A120G A145U C169G
3. C82A A111G A120U A145U C150G C169U U176A
4. C82G A111G A120G A145U C150U U176G

1: 0.00858; 2: 0.00905; 3: 0.00252; 4: 0.00626

Go through the list and state reverse-splicing fitness for each entry.
1. C82G A120C A145U C150G C169G U176C
2. A111U A120C A145U C150A C169A U176G
3. C82A A111G A120G C150A U176C
4. C82G A111U A120G A145U C150U
5. C82U A120G A145U C150A U176G
6. C82G C150G C169U U176G

[0.00634, 0.00488, 0.0186, 0.0139, 0.00337, 0.00593]

State the recorded reverse-splicing fitness for every item in the following list.
1. C82U A111U A120G C150G C169A U176G
2. A120C A145G C150A C169G U176C
3. C82A A111C A120C A145C C150G C169A U176G
4. A111G A120C C169U U176G
5. C82A A111U A120G A145C C150G C169G U176C

0.00664
0.0234
0.00767
0.00675
0.00725

Look at each variant and report its reverse-splicing fitness.
1. C82G A111G A120G A145C C150A U176G
2. C82G A111U A120C C150G C169G U176A
3. A111U A145C C169G

[0.00588, 0.00766, 0.0589]
